System Name: SRBD subdomain of SARS-CoV-2 S protein (SARS-CoV-2, UniProt P0DTC2 319-541)
Test: ELISA, purified IgG
Task for the reader: assign each of the following binders its reported OD 450 nm.
Number only, in OD 450 nm; omit the unit.

[ask] Suppose we examine the binder COV2-2103 (antibody, V domains shown) VH: EVQLVESGGGLVQPGGSLRLSCAASGFTFSRHWMTWVRQAPGKGLEWVANIKQDGSEKYYVDSVKGRLTISRDNAKNSLYLQMNSLRAEDTAVYYCARLGFYYGGADYWGQGTLVTVSS VL: NFMLTQPHSVSESPGKTVTISCTGSSGSIASNYVQWYQQRPGSAPTTVISEDNQRPSGVPDRFSGSIDSSSNSASLTISGLKTEDEADYYCQSYDGINRAWVFGGGTKLTVL ; what OD 450 nm value has been reported?
[reply] 4.3

[ask] Cool, now COV2-2113 (antibody, V domains shown) VH: EVQLVESGGGLIQPGGSLRLSCAASEVTVSSNYMSWVRQAPGKGLEWVSLIYSGGTTYYADSVKGRFTISRDNSKNTLYLQMNSLRAEDTAVYYCARDFLRWHDLWGQGTLVTVSS VL: DIQMTQSPSSLSASVGDRVTITCQASQDINNYLNWYQQKPGKAPKLLIYDASNLETGVPLRFSGSGSGTDFIFTISSLQPEDIATYYCQQYDNLPPVFGGGTKVEIK
[reply] 4.4
